- Tested on: Escherichia coli
- Assay: The compound was tested in vitro for minimum inhibitory concentration against Escherichia coli ATCC 25922
- Assay type: functional
Parameter: MIC (mg/L)
Response body: numeric value in mg/L, unit text excluded.

1) O=CN[C@@H]1C(=O)N2C(C(=O)O)=C(COC(=O)N3CCN(c4cc5c(cc4F)c(=O)c(C(=O)O)cn5C4CC4)CC3)CS[C@H]12 : 0.063
2) N#CCC(=O)N[C@@H]1C(=O)N2C(C(=O)O)=C(COC(=O)N3CCN(c4cc5c(cc4F)c(=O)c(C(=O)O)cn5C4CC4)CC3)CS[C@H]12 : 0.063
3) CC(=O)OCC1=C(C(=O)O)N2C(=O)[C@@H](NC(=O)COc3ccccc3)[C@H]2SC1 : 128
4) O=C(COc1ccccc1)N[C@@H]1C(=O)N2C(C(=O)O)=C(COC(=O)N3CCN(c4cc5c(cc4F)c(=O)c(C(=O)O)cn5C4CC4)CC3)CS[C@H]12 : 0.063
5) CC(C)(O/N=C(\C(=O)N[C@@H]1C(=O)N2C(C(=O)O)=C(COC(=O)N3CCN(c4cc5c(cc4F)c(=O)c(C(=O)O)cn5C4CC4)CC3)CS[C@H]12)c1csc(N)n1)C(=O)O : 0.063

Please look at the following compound next.
# lookup: CO/N=C(\C(=O)N[C@@H]1C(=O)N2C(C(=O)O)=C(COC(=O)N3CCN(c4cc5c(cc4F)c(=O)c(C(=O)O)cn5C4CC4)CC3)CS[C@H]12)c1csc(N)n1 on Escherichia coli, MIC = 0.031

---

- Tested on: Escherichia coli
- Assay: The compound was evaluated for the inhibition of [14C]- Pen G binding to Escherichia coli UB1005 penicillin-binding protein 1b 90 kDa.
Parameter: Inhibitory concentration (µg/mL)
Response body: numeric value in µg/mL, unit text excluded.

Entry CO/N=C(\C(=O)N[C@@H]1C(=O)N2C(C(=O)O)=C(COC(C)=O)CS[C@H]12)c1csc(N)n1 [CEFOTAXIME] , Inhibitory concentration reported as 0.5

Entry CO/N=C(\C(=O)N[C@@H]1C(=O)N2C(C(=O)O)=C(COC(=O)N3CCN(c4cc5c(cc4F)c(=O)c(C(=O)O)cn5C4CC4)CC3)CS[C@H]12)c1csc(N)n1 , Inhibitory concentration reported as 30

---

- System: Enterobacter cloacae
- Assay: The compound was tested in vitro for minimum inhibitory concentration against Enterobacter cloacae P99
- Assay type: functional
Parameter: MIC

1) CO/N=C(\C(=O)N[C@@H]1C(=O)N2C(C(=O)O)=C(COC(=O)N3CCN(c4cc5c(cc4F)c(=O)c(C(=O)O)cn5C4CC4)CC3)CS[C@H]12)c1csc(N)n1 : < 0.016 µg/mL

Entry N#CCC(=O)N[C@@H]1C(=O)N2C(C(=O)O)=C(COC(=O)N3CCN(c4cc5c(cc4F)c(=O)c(C(=O)O)cn5C4CC4)CC3)CS[C@H]12 , MIC reported as < 0.016 µg/mL

Entry CC(=O)OCC1=C(C(=O)O)N2C(=O)[C@@H](NC(=O)COc3ccccc3)[C@H]2SC1 , MIC reported as > 128 µg/mL

Entry CO/N=C(\C(=O)N[C@@H]1C(=O)N2C(C(=O)O)=C(COC(C)=O)CS[C@H]12)c1csc(N)n1 , MIC reported as 64 µg/mL

Entry CCN1CCN(C(=O)NC(C(=O)N[C@@H]2C(=O)N3C(C(=O)O)=C(COC(=O)N4CCN(c5cc6c(cc5F)c(=O)c(C(=O)O)cn6C5CC5)CC4)CS[C@H]23)c2ccccc2)C(=O)C1=O (stereo partly drawn) , MIC reported as 0.031 µg/mL

Entry O=C(COc1ccccc1)N[C@@H]1C(=O)N2C(C(=O)O)=C(COC(=O)N3CCN(c4cc5c(cc4F)c(=O)c(C(=O)O)cn5C4CC4)CC3)CS[C@H]12 , MIC reported as 0.031 µg/mL

Entry O=CN[C@@H]1C(=O)N2C(C(=O)O)=C(COC(=O)N3CCN(c4cc5c(cc4F)c(=O)c(C(=O)O)cn5C4CC4)CC3)CS[C@H]12 , MIC reported as 0.031 µg/mL

Entry NC(=O)CO/N=C(\C(=O)N[C@@H]1C(=O)N2C(C(=O)O)=C(COC(=O)N3CCN(c4cc5c(cc4F)c(=O)c(C(=O)O)cn5C4CC4)CC3)CS[C@H]12)c1csc(N)n1 , MIC reported as 0.063 µg/mL
